# experiment_notes: Apparent permeability from apical to basolateral side in human Caco2 cells at 10 uM incubated for 60 mins by LC-MS/MS analysis
# Assay type: ADME, cell-based, Caco-2
# conditions_used: Caco-2
property_name: Papp A→B at 1 h, 10 µM

[[record]]
smiles_text = "Cc1ccc(NC(=O)c2cccc(C(F)(F)F)c2)cc1NC(=O)c1cnc(N)nc1"
property_name = "Papp A→B at 1 h, 10 µM"
experimental_result = "0.1 ×10⁻⁶ cm/s"

[[record]]
smiles_text = "Cc1ccc(NC(=O)c2cccc(C(F)(F)F)c2)cc1NC(=O)c1cncc(-c2cnn(C)c2)c1"
property_name = "Papp A→B at 1 h, 10 µM"
experimental_result = "12.5 ×10⁻⁶ cm/s"


---

# experiment_notes: AUC (0 to last) in CD-1 mouse at 2 mg/kg, iv
# Format: ADME, organism-based
# Parameters: dose 2 mg/kg, time 0 - last, route intravenous
# conditions_used: in vivo
property_name: AUC(0-t) (µM·h)

[[record]]
smiles_text = "Cc1ccc(NC(=O)c2ccc(CN3CCN(C)CC3)c(C(F)(F)F)c2)cc1NC(=O)c1cccc(-c2cnn(C)c2)c1"
experimental_result = 0.27

[[record]]
smiles_text = "Cc1ccc(NC(=O)c2cccc(C(F)(F)F)c2)cc1NC(=O)c1cncc(-c2cnn(C)c2)c1"
experimental_result = 2.24


---

# experiment_notes: Stability in human liver microsomes assessed as compound remaining at 1 uM after 30 mins in presence of NADPH by LC/MS/MS analysis
# Format: ADME, microsome
# conditions_used: read-out: Stability
property_name: remaining at 0.5 h, 1 µM (%)

[[record]]
smiles_text = "Cc1ccc(NC(=O)c2cccc(C(F)(F)F)c2)cc1NC(=O)c1cncc(-c2cnn(C)c2)c1"
endpoint_unit = "%"
experimental_result = 37

[[record]]
smiles_text = "Cc1ncc(NC(=O)c2cccc(C(F)(F)F)c2)cc1NC(=O)c1cncc(-c2cnn(C)c2)c1"
endpoint_unit = "%"
experimental_result = 60

[[record]]
smiles_text = "Cc1ccc(NC(=O)c2cccc(C(F)(F)F)c2)cc1NC(=O)c1cccc(-c2cnn(C)c2)c1"
endpoint_unit = "%"
experimental_result = 68

[[record]]
smiles_text = "Cc1ccc(NC(=O)c2ccc(CN3CCNCC3)c(C(F)(F)F)c2)cc1NC(=O)c1cccc(-c2cnn(C)c2)c1"
endpoint_unit = "%"
experimental_result = 85

[[record]]
smiles_text = "Cc1ccc(NC(=O)c2cccc(C(F)(F)F)c2)cc1NC(=O)c1cnc(N)nc1"
endpoint_unit = "%"
experimental_result = 91


---

# experiment_notes: Systemic clearance in CD-1 mouse at 2 mg/kg, iv
# Format: ADME, organism-based
# conditions_used: in vivo
property_name: clearance

[[record]]
smiles_text = "Cc1ccc(NC(=O)c2cccc(C(F)(F)F)c2)cc1NC(=O)c1cncc(-c2cnn(C)c2)c1"
experimental_result = "31 mL/min/kg"

[[record]]
smiles_text = "Cc1ccc(NC(=O)c2ccc(CN3CCN(C)CC3)c(C(F)(F)F)c2)cc1NC(=O)c1cccc(-c2cnn(C)c2)c1"
experimental_result = "210 mL/min/kg"


---

# experiment_notes: Growth inhibition of mouse BMMC at 1 uM after 72 hrs by CellTiter-Glo luminescent assay relative to control
# Assay type: functional
# conditions_used: read-out: GI
property_name: inhibition of growth at 1 µM (%)

[[record]]
smiles_text = "Cc1ccc(C(=O)Nc2ccc(CN3CCN(C)CC3)c(C(F)(F)F)c2)cc1NC(=O)c1cccc(-c2cccnc2)c1"
endpoint_unit = "%"
experimental_result = 61

[[record]]
smiles_text = "Cc1ccc(C(=O)Nc2ccc(CN3CCN(C)CC3)c(C(F)(F)F)c2)cc1NC(=O)c1cccc(-c2cncnc2)c1"
endpoint_unit = "%"
experimental_result = 64

[[record]]
smiles_text = "Cc1ccc(C(=O)Nc2ccc(CN3CCN(C)CC3)c(Cl)c2)cc1NC(=O)c1cccc(-c2cccs2)c1"
endpoint_unit = "%"
experimental_result = 20

[[record]]
smiles_text = "Cc1ccc(NC(=O)c2ccc(CN3CCN(C)CC3)c(C(F)(F)F)c2)cc1NC(=O)c1cccc(-c2ccncc2)c1"
endpoint_unit = "%"
experimental_result = 72

[[record]]
smiles_text = "Cc1ccc(NC(=O)c2ccc(CN3CCNCC3)c(C(F)(F)F)c2)cc1NC(=O)c1cccc(-c2cnn(C)c2)c1"
endpoint_unit = "%"
experimental_result = 44

[[record]]
smiles_text = "Cc1ccc(NC(=O)c2cccc(C(F)(F)F)c2)cc1NC(=O)c1cncc(-c2cnn(C)c2)c1"
endpoint_unit = "%"
experimental_result = 96

[[record]]
smiles_text = "Cc1ccc(NC(=O)c2ccc(CN3CCN(C)CC3)c(C(F)(F)F)c2)cc1NC(=O)c1cccc(-c2ccccn2)c1"
endpoint_unit = "%"
experimental_result = 31

[[record]]
smiles_text = "Cc1ccc(NC(=O)c2ccc(CN3CCN(C)CC3)c(C(F)(F)F)c2)cc1NC(=O)c1cccc(-c2nn[nH]n2)c1"
endpoint_unit = "%"
experimental_result = 2.4


---

# tested_target: Macrophage colony-stimulating factor 1 receptor (Homo sapiens)
# Sequence (P07333 whole entry): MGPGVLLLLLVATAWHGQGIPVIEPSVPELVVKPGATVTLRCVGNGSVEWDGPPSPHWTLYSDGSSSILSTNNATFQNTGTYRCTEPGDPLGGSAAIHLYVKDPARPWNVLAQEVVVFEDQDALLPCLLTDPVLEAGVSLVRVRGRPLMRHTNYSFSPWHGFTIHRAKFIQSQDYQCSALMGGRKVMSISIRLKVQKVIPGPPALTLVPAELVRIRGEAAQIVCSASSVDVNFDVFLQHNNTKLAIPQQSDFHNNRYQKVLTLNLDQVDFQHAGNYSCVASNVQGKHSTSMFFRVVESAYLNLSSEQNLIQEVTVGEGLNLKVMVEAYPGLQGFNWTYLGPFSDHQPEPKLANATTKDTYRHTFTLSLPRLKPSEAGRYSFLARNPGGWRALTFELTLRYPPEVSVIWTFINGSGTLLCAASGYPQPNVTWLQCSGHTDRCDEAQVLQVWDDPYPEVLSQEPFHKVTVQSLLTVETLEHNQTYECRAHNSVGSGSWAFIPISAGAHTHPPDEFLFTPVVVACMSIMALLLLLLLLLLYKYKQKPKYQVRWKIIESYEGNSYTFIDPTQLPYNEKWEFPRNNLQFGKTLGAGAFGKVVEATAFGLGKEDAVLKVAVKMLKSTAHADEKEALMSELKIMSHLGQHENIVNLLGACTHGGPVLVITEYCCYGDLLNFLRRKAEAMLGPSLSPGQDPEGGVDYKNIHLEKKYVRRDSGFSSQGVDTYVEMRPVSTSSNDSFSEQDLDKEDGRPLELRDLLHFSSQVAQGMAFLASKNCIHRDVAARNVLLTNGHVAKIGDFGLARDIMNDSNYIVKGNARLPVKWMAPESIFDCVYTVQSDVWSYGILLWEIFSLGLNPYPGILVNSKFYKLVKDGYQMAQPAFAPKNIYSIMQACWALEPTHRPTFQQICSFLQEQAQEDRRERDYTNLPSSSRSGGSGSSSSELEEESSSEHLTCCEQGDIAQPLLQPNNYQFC
property_name: IC50

[[record]]
smiles_text = "Cc1ccc(NC(=O)c2ccc(CN3CCN(C)CC3)c(C(F)(F)F)c2)cc1NC(=O)c1cccc(-c2cn[nH]c2)c1"
property_name = "IC50"
experimental_result = "< 0.0005 µM"

[[record]]
smiles_text = "Cc1ccc(C(=O)Nc2ccc(CN3CCN(C)CC3)cc2)cc1NC(=O)c1cccc(-c2cccs2)c1"
property_name = "IC50"
experimental_result = "> 10 µM"


---

# experiment_notes: Volume of distribution at steady state in CD-1 mouse at 2 mg/kg, iv
# Assay type: ADME, organism-based
# conditions_used: in vivo, read-out: Vdss
property_name: Vd (L/kg)

[[record]]
smiles_text = "Cc1ccc(NC(=O)c2ccc(CN3CCN(C)CC3)c(C(F)(F)F)c2)cc1NC(=O)c1cccc(-c2cnn(C)c2)c1"
property_name = "Vd"
experimental_result = 4.23

[[record]]
smiles_text = "Cc1ccc(NC(=O)c2cccc(C(F)(F)F)c2)cc1NC(=O)c1cncc(-c2cnn(C)c2)c1"
property_name = "Vd"
experimental_result = 1.1


---

# experiment_notes: Cmax in CD-1 mouse plasma at 10 mg/kg, po
# Type: ADME, organism-based
# Design: dose 10 mg/kg, route oral
property_name: Cmax (nM)

[[record]]
smiles_text = "Cc1ccc(NC(=O)c2cccc(C(F)(F)F)c2)cc1NC(=O)c1cncc(-c2cnn(C)c2)c1"
endpoint_unit = "nM"
experimental_result = 4600

[[record]]
smiles_text = "Cc1ccc(NC(=O)c2ccc(CN3CCN(C)CC3)c(C(F)(F)F)c2)cc1NC(=O)c1cccc(-c2cnn(C)c2)c1"
endpoint_unit = "nM"
experimental_result = 160


---

# experiment_notes: Growth inhibition of mouse BMMC at 1 uM after 72 hrs by CellTiter-Glo luminescent assay relative to control
# Format: functional
# conditions_used: read-out: GI
This section presents molecules with their documented inhibition of growth at 1 µM values.
property_name: inhibition of growth at 1 µM

[[record]]
smiles_text = "Cc1ccc(NC(=O)c2cccc(C(F)(F)F)c2)cc1NC(=O)c1cnc(N)nc1"
property_name = "inhibition of growth at 1 µM"
experimental_result = "86%"

[[record]]
smiles_text = "CN1CCN(Cc2ccc(NC(=O)c3ccc(Cl)c(NC(=O)c4cccc(-c5cccs5)c4)c3)cc2C(F)(F)F)CC1"
property_name = "inhibition of growth at 1 µM"
experimental_result = "-7%"

[[record]]
smiles_text = "Cc1ccc(C(=O)Nc2ccc(CN3CCN(C)CC3)cc2)cc1NC(=O)c1cccc(-c2cccs2)c1"
property_name = "inhibition of growth at 1 µM"
experimental_result = "11%"

[[record]]
smiles_text = "Cc1ccc(NC(=O)c2ccc(CN3CCN(C)CC3)c(C(F)(F)F)c2)cc1NC(=O)c1cccc(-c2cn[nH]c2)c1"
property_name = "inhibition of growth at 1 µM"
experimental_result = "80%"


---

# experiment_notes: Kinetic solubility of the compound in PBS buffer at pH 7.4 at […] after 1 hr by nephelometry
# Format: physicochemical
# conditions_used: read-out: Kinetic_solubility
property_name: solubility kinetic at 1 h (µM)

[[record]]
smiles_text = "Cc1ccc(NC(=O)c2ccc(CN3CCN(C)CC3)c(C(F)(F)F)c2)cc1NC(=O)c1cccc(-c2cnn(C)c2)c1"
endpoint_unit = "µM"
experimental_result = 4.7


---

# experiment_notes: Growth inhibition of mouse BMMC at 1 uM after 72 hrs by CellTiter-Glo luminescent assay relative to control
# Format: functional
# conditions_used: read-out: GI
property_name: inhibition of growth at 1 µM (%)

[[record]]
smiles_text = "Cc1ccc(NC(=O)c2ccc(CN3CCN(C)CC3)c(C(F)(F)F)c2)cc1NC(=O)c1cccc(-c2cnn(C)c2)c1"
property_name = "inhibition of growth at 1 µM"
experimental_result = 81

[[record]]
smiles_text = "Cc1ccc(NC(=O)c2ccc(CN3CCN(C)CC3)c(C(F)(F)F)c2)cc1NC(=O)c1cccc(-c2cncnc2)c1"
property_name = "inhibition of growth at 1 µM"
experimental_result = 76

[[record]]
smiles_text = "Cc1ncc(NC(=O)c2cccc(C(F)(F)F)c2)cc1NC(=O)c1cncc(-c2cnn(C)c2)c1"
property_name = "inhibition of growth at 1 µM"
experimental_result = 87

[[record]]
smiles_text = "Cc1ccc(C(=O)Nc2ccc(CN3CCN(C)CC3)c(C(F)(F)F)c2)cc1NC(=O)c1cccc(-c2cccs2)c1"
property_name = "inhibition of growth at 1 µM"
experimental_result = 22

[[record]]
smiles_text = "Cc1ccc(NC(=O)c2ccc(CN3CCN(C)CC3)c(C(F)(F)F)c2)cc1NC(=O)c1cccc(-c2cccnc2)c1"
property_name = "inhibition of growth at 1 µM"
experimental_result = 84

